molecular target: PPAR-alpha (Homo sapiens, UniProt Q07869); construct: expressed in transfected cells; host or cells: CV-1 cells; experiment: human PPAR-GAL4 chimera luciferase reporter assay in CV-1 cells, PPAR-alpha; assay type: cell-based; conditions: Table 3, Examples 11-25, read-out: PPAR alpha (EC50)
Sequence (Q07869 239-466 limits assumed): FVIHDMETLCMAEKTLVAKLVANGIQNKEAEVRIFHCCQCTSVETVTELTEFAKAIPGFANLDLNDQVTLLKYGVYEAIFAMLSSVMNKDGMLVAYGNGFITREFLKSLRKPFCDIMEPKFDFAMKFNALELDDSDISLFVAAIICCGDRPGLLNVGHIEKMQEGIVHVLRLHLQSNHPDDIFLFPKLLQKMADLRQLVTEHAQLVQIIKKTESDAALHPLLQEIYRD
pEC50: −log10 of the molar value.
Assay Metric: pEC50

Here are 2 compounds together with their reported answers.
Compound: Cc1nc(-c2ccc(C(F)(F)F)cc2)sc1Cn1ccc2cc(OCC(=O)O)ccc21 [Example 12]
pEC50: 4.00 to 5.30
//
Compound: Cc1nc(-c2ccc(C(F)(F)F)cc2)sc1CCn1ccc2cc(OC(C)(C)C(=O)O)ccc21 [Example 21]
pEC50: 4.00 to 5.30

Now turn to the next compound.
Requested read-out: pEC50. Entry: Cc1nc(-c2ccc(C(F)(F)F)cc2)sc1Cn1ccc2cc(OC(C)(C)C(=O)O)ccc21 [Example 15] > 5.30

Reference for the values: patent US20050203151A1
